- MEASUREMENT_DESCRIPTION: log P by reversed-phase HPLC (EEC Directive 79/831 Annex V.A8), acidic method
- Format: physicochemical
- CONDITION_SUMMARY: reversed-phase C18 HPLC column; HPLC on reversed-phase C18, acidic range, formic acid in water/acetonitrile
chromatographic logP values by entry
READOUT_LABEL: chromatographic logP

COMPOUND | READOUT_LABEL | NUMERIC_VALUE
CCS(=O)(=O)c1c(-c2nc3cc(OC(F)(F)F)ccc3o2)nc2cc(C3(C#N)CC3)ccn12 | chromatographic logP | 3.29
CCS(=O)(=O)c1c(-c2nc3cc(SC(F)(F)F)ccc3o2)nc2cc(C3(C#N)CC3)ccn12 | chromatographic logP | 3.63
CCS(=O)(=O)c1c(-c2nc3cc([S+]([O-])C(F)(F)F)ccc3o2)nc2cc(C3(C#N)CC3)ccn12 (centres unmarked) | chromatographic logP | 2.67
CCS(=O)(=O)c1c(-c2nc3cc(C(F)(F)F)ccc3o2)nc2cc(C3(C#N)CC3)ccn12 | chromatographic logP | 3.22
CCS(=O)(=O)c1c(-c2nc3cc(S(=O)(=O)C(F)(F)F)ccc3o2)nc2cc(C3(C#N)CC3)ccn12 | chromatographic logP | 3.18
